- Experimental system: mPAD4 (Mus musculus, UniProt Q9Z183)
- Sequence (Q9Z183 whole entry): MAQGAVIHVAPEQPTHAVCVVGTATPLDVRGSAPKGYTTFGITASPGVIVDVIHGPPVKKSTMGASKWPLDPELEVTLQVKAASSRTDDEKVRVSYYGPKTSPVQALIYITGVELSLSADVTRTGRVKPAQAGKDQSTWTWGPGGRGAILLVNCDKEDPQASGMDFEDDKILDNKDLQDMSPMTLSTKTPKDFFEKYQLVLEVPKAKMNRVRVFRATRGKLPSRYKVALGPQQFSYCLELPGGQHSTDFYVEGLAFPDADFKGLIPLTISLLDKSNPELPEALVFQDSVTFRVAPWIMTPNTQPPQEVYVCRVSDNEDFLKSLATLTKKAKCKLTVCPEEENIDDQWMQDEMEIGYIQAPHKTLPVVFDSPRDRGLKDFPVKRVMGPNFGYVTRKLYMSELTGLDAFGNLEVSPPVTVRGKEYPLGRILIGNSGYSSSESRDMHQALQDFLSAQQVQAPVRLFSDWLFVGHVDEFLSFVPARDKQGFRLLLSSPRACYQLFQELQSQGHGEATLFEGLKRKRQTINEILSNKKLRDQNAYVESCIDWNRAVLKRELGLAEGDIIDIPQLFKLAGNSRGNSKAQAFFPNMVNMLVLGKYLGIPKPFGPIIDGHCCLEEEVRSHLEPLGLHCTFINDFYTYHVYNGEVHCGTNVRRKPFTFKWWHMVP
- Method description: mPAD4 RFMS PAD4 inhibition assay
- Assay type: biochemical
- Assay conditions: mPAD4, RFMS readout; read-out: mPAD4 RFMS IC50
Measured metric: IC50

As a guide, the following entries are already answered.
State its IC50: CCn1c(-c2nc3cc(C(=O)N4C[C@H]5CC[C@@H]4[C@@H]5N)cc(OC)c3n2C)cc2cccnc21 [Compound I-159] < 1000 nM

State its IC50: CCn1c(-c2nc3cc(C(=O)N4CCC[C@@H](N)C4)cc(OC)c3n2C)cc2ccc(OC)nc21 < 1000 nM

State its IC50: COc1cc(C(=O)N2C[C@H](N)CC[C@@H]2CO)cc2nc(-c3cc4cccnc4n3CC3CC3)n(C)c12 (racemic) [Compound I-221] 1000 to 5000 nM

State its IC50: CCn1c(-c2cc3ccc(OC)nc3n2CC2CC2)nc2cc(C(=O)N3CCC[C@@H](N)C3)cc(OC)c21 < 1000 nM

---
State its IC50: CCn1c(-c2nc3cc(C(=O)N4CCC[C@@H](N)C4)cc(OC)c3n2CC2CC(F)(F)C2)cc2cccnc21 < 1000 nM

State its IC50: CCn1c(-c2cc3cccnc3n2CC2CC2)nc2cc(C(=O)N3CCC[C@@H](N)C3)cc(OC)c21 < 1000 nM

State its IC50: COc1ccc2cc(-c3nc4cc(C(=O)N5CCC[C@@H](N)C5)cc(OC)c4n3C)n(CC3CC3)c2n1 < 1000 nM

State its IC50: COc1cc(C(=O)N2CCC(OC(F)F)C(N)C2)cc2nc(-c3cc4cccnc4n3CC3CC3)n(C)c12 (racemic) < 1000 nM

State its IC50: COc1cc(C(=O)N2CC[C@]3(CNCCC3(F)F)C2)cc2nc(-c3cc4cccnc4n3CC3CC3)n(C)c12 > 10000 nM

State its IC50: COc1cc(C(=O)N2C[C@H]3CC[C@@H]2[C@@H]3N)cc2nc(-c3cc4cccnc4n3CC3CC3)n([C@H]3C[C@H](F)C3)c12 < 1000 nM

All values here come from patent US9963448B2.
